Give measured pKi for each item. Keep answers brief.
# tested_target: ICE (Homo sapiens, UniProt P29466)
# Sequence (P29466 120-297 limits assumed): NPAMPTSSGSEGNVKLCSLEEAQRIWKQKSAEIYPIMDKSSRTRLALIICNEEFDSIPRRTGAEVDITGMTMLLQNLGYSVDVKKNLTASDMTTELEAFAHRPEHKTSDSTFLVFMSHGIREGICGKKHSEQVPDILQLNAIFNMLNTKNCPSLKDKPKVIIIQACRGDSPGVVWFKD
# Sequence (P29466 317-404 limits assumed): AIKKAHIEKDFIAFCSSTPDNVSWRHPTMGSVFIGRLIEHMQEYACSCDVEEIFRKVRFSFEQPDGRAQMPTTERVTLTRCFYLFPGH
# assay_remarks: Enzyme assay with UV-visible substrate (Succinyl-Tyr-Val-Ala-Asp-pNitroanilide)
# Type: biochemical
# experimental_setup: Example 4 table
Where a name gives a salt, the structure may show the parent alone.
Interpret pKi as the negative base-10 log of the concentration measured in mol/L.

[Q] Which pKi reading was recorded for the molecule CCCCc1ccc(NC(=O)CCc2ccccc2)c(=O)n1CC(=O)N[C@H](C=O)CC(=O)O [Compound 54d] ?
[A] 6.00

[Q] Which pKi reading was recorded for the molecule CC(C(=O)N[C@H](C=O)CC(=O)O)n1c(Cc2ccccc2)ccc(NC(=O)CCc2ccccc2)c1=O (mixture of isomers) [Compound 54h] ?
[A] 6.01

[Q] Which pKi reading was recorded for the molecule C[C@H](NC(=O)c1cnc(CCc2ccc(C(F)(F)F)cc2)[nH]1)C(=O)N[C@H](C=O)CC(=O)O [Compound 33b] ?
[A] 5.00

[Q] Which pKi reading was recorded for the molecule O=CC(CC(=O)O)NC(=O)C1CCc2ncc(NC(=O)c3ccccc3)c(=O)n21 (single isomer, unassigned) [Compound 7a] ?
[A] 4.46

[Q] Which pKi reading was recorded for the molecule O=C[C@H](CC(=O)O)NC(=O)Cn1c(-c2ccccc2)ccc(NC(=O)CCc2ccccc2)c1=O [Compound 54f] ?
[A] 6.05

[Q] Which pKi reading was recorded for the molecule O=C[C@H](CC(=O)O)NC(=O)CN(CCc1ccccc1)C(=O)c1ncc(CCCc2ccccc2)[nH]1 [Compound 25, trifluoroacetic acid salt] ?
[A] 5.21

[Q] Which pKi reading was recorded for the molecule `CC(C)[C@H](NC(=O)OCc1ccccc1)C(=O)N[C@@H](C)C(=O)N[C@@H](CC(=O)O)C(=O)c1nc2ccccc2o1` ?
[A] 6.07

[Q] Which pKi reading was recorded for the molecule O=C[C@H](CC(=O)O)NC(=O)Cn1c(Cc2ccccc2)ccc(NC(=O)OCCc2ccccc2)c1=O [Compound 54k] ?
[A] 7.07

[Q] Which pKi reading was recorded for the molecule O=C[C@H](CC(=O)O)NC(=O)Cn1cccc(NC(=O)CCc2ccccc2)c1=O [Compound 54g] ?
[A] 5.32

[Q] Which pKi reading was recorded for the molecule O=C[C@H](CC(=O)O)NC(=O)Cn1c(Cc2ccccc2)ccc(NS(=O)(=O)CCc2ccccc2)c1=O [Compound 54j] ?
[A] 6.55

[Q] Which pKi reading was recorded for the molecule O=C[C@H](CC(=O)O)NC(=O)[C@@H]1CCCN2CCC[C@H](NC(=O)CCc3ccccc3)C(=O)N12 [Compound 47b] ?
[A] 7.57

[Q] Which pKi reading was recorded for the molecule O=C[C@H](CC(=O)O)NC(=O)Cn1c(Cc2ccccc2)ccc(NC(=O)CCCc2ccccc2)c1=O [Compound 54l] ?
[A] 6.67

[Q] Which pKi reading was recorded for the molecule Cc1ccc(NC(=O)CCc2ccccc2)c(=O)n1CC(=O)N[C@H](C=O)CC(=O)O [Compound 54e] ?
[A] 5.46

[Q] Which pKi reading was recorded for the molecule O=CC(CC(=O)O)NC(=O)C1CCc2ncc(NC(=O)c3ccccc3)c(=O)n21 (single isomer, unassigned) [Compound 7b] ?
[A] 5.92

###

# Test system: Human Peripheral Blood Mononuclear Cells (PBMC) or Enriched Adherent Mononuclear Cells
# assay_remarks: Cell assay: IL-1β assay with human PBMC or enriched adherent mononuclear cells
# Type: cell-based
# experimental_setup: Homo sapiens, PBMC, Example 2 table; LPS-stimulated cells, mature IL-1β in supernatant by ELISA
# Excerpt: IL-1β Assay with a Mixed Population of Human Peripheral Blood Mononuclear Cells (PBMC) or Enriched Adherent Mononuclear Cells Processing of pre-IL-1S by ICE can be measured in cell culture using a variety of cell sources. Human PBMC obtained from healthy donors provides a mixed population of lymphocyte subtypes and mononuclear cells that produce a spectrum of interleukins and cytokines in response to many classes of physiological stimulators. […]
Non-standard residues stand in square brackets, D forms with d. Residues, ends and D or L forms follow the SMILES beside them. Hyp = O=C(O)[C@@H]1C[C@@H](O)CN1; Pip = O=C(O)[C@@H]1CCCCN1
readout: IC50

[Q] Which IC50 reading was recorded for the compound CC(=O)N[C@@H](Cc1ccc(O)cc1)C(=O)N[C@H](C(=O)N1CCCC[C@H]1C(=O)N[C@H](C=O)CC(=O)O)C(C)C [H] (Ac-YV[Pip]D-aldehyde) ?
[A] 6 to 11 µM

[Q] Which IC50 reading was recorded for the compound CC(=O)N[C@@H](Cc1ccc(O)cc1)C(=O)N[C@H](C(=O)N1C[C@H](O)C[C@H]1C(=O)N[C@H](C=O)CC(=O)O)C(C)C [J] (Ac-YV[Hyp]D-aldehyde) ?
[A] 5 to 7 µM

[Q] Which IC50 reading was recorded for the compound C[C@H](NC(=O)c1cnc(CCc2ccccc2)[nH]1)C(=O)N[C@H](C=O)CC(=O)O [Compound 33a] ?
[A] 25 µM

[Q] Which IC50 reading was recorded for the compound C[C@H](NC(=O)c1cnc(CCc2ccc(C(F)(F)F)cc2)[nH]1)C(=O)N[C@H](C=O)CC(=O)O [Compound 33b] ?
[A] > 30 µM

###

# System: Human Peripheral Blood Mononuclear Cells (PBMC) or Enriched Adherent Mononuclear Cells
# assay_remarks: Cell assay: IL-1β assay with human PBMC or enriched adherent mononuclear cells
# Assay type: cell-based
# experimental_setup: Homo sapiens, PBMC, Example 4 table; LPS-stimulated cells, mature IL-1β in supernatant by ELISA
readout: IC50 (µM)
Quick reminder: number only, in µM, skip the unit.

[Q] Which IC50 reading was recorded for the molecule C[C@H](NC(=O)c1ccc(Cc2ccccc2)[nH]1)C(=O)N[C@H](C=O)CC(=O)O [Compound 36b] ?
[A] 17

[Q] Which IC50 reading was recorded for the molecule C[C@H](NC(=O)c1nc(CCCc2ccccc2)c[nH]1)C(=O)N[C@H](C=O)CC(=O)O [Compound 20d] ?
[A] 6.2

[Q] Which IC50 reading was recorded for the molecule O=C[C@H](CC(=O)O)NC(=O)[C@@H]1CCCN2C(=O)CC[C@H](NC(=O)CCc3ccccc3)C(=O)N12 [Compound 47a] ?
[A] 2.1

[Q] Which IC50 reading was recorded for the molecule C[C@@H](C(=O)N[C@H](C=O)CC(=O)O)n1cccc(NC(=O)CCc2ccccc2)c1=O [Compound 54a] ?
[A] 2.7

[Q] Which IC50 reading was recorded for the molecule O=C[C@H](CC(=O)O)NC(=O)[C@@H]1CCCN1C(=O)c1nc(CCCc2ccccc2)c[nH]1 [Compound 21d] ?
[A] 4.8

[Q] Which IC50 reading was recorded for the molecule O=C[C@H](CC(=O)O)NC(=O)[C@@H]1CCCN1C(=O)c1nc(CCCc2ccc(O)cc2)c[nH]1 [Compound 21f] ?
[A] 2.9

[Q] Which IC50 reading was recorded for the molecule CC(=O)N[C@@H](Cc1ccc(O)cc1)C(=O)N[C@H](C(=O)N[C@@H](C)C(=O)N[C@H](CC(=O)O)C(=O)COCc1c(Cl)cccc1Cl)C(C)C (mixture of isomers) [Compound 84b] ?
[A] 0.5

[Q] Which IC50 reading was recorded for the molecule CC(=O)N[C@@H](Cc1ccc(O)cc1)C(=O)Nc1ccc(Cc2ccccc2)n(CC(=O)N[C@H](C=O)CC(=O)O)c1=O [Compound 54i] ?
[A] 2.4

[Q] Which IC50 reading was recorded for the molecule COc1ccc(CCCc2c[nH]c(C(=O)N3CCC[C@H]3C(=O)N[C@H](C=O)CC(=O)O)n2)cc1 [Compound 21e] ?
[A] 2.9

[Q] Which IC50 reading was recorded for the molecule O=C[C@H](CC(=O)O)NC(=O)[C@@H]1CCCN2CCC[C@H](NC(=O)CCc3ccccc3)C(=O)N12 [Compound 47b] ?
[A] 1.8

[Q] Which IC50 reading was recorded for the molecule O=C[C@H](CC(=O)O)NC(=O)Cn1c(Cc2ccccc2)ccc(NC(=O)CCc2ccccc2)c1=O [Compound 54b] ?
[A] 9.1

[Q] Which IC50 reading was recorded for the molecule CC(C)[C@H](NC(=O)OCc1ccccc1)C(=O)N[C@@H](C)C(=O)N[C@H](CC(=O)O)C(=O)COCc1c(Cl)cccc1Cl (mixture of isomers) [Compound 84a] ?
[A] 3.3

[Q] Which IC50 reading was recorded for the molecule C[C@H](NC(=O)c1cnc(CCc2ccccc2)[nH]1)C(=O)N[C@H](C=O)CC(=O)O [Compound 33a] ?
[A] 25

[Q] Which IC50 reading was recorded for the molecule COc1cccc2nc(C(=O)[C@H](CC(=O)O)NC(=O)[C@H](C)NC(=O)[C@@H](NC(=O)[C@H](Cc3ccc(O)cc3)NC(C)=O)C(C)C)oc12 [Compound 69a] ?
[A] 0.735

[Q] Which IC50 reading was recorded for the molecule C[C@H](NC(=O)c1nc(Cc2ccccc2)c[nH]1)C(=O)N[C@H](C=O)CC(=O)O [Compound 20b] ?
[A] 16.4

[Q] Which IC50 reading was recorded for the molecule C[C@H](NC(=O)c1cnc(Cc2ccccc2)[nH]1)C(=O)N[C@H](C=O)CC(=O)O [Compound 33c] ?
[A] 20
